Test system: Homo sapiens
protocol.text: Antiosteoporotic activity in men with osteoporosis assessed as decrease in bone resorption-associated serum CTX-1 level at 250 mg/kg after 10 to 14 days
Assay type: functional, organism-based
Design: dose 250 mg/kg
parameter: EC50 (nM)
The response must be a number in nM with no trailing unit.

Look up EC50: CCCCN1C(=O)C(=C(N)N)C(=O)N(CCCC)C1=O
1500

###

system.name: Prostaglandin E2 receptor EP3 subtype (Mus musculus, UniProt P30557)
Sequence (P30557 whole entry): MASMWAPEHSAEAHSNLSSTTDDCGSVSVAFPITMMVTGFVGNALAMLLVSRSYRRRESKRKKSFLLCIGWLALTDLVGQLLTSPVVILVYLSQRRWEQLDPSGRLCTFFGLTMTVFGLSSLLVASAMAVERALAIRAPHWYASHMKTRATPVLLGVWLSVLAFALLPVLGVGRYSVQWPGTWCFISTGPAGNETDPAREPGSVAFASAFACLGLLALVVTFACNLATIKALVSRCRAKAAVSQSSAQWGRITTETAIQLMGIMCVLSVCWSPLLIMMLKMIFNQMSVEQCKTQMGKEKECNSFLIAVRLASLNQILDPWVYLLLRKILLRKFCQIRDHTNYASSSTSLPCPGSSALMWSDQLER
parameter: Ki (nM)
The response must be a number in nM with no trailing unit.

Look up Ki: COCc1cccc(C[C@H](O)/C=C/[C@H]2[C@H](O)CC(=O)[C@@H]2CCSCCCC(=O)OC)c1 [RIVENPROST]
56

###

protocol.text: Selectivity for cathepsin K over cathepsin L
parameter: Selectivity ratio

Look up Selectivity ratio: CC[C@@H](CNc1ccc(OCC(=O)O)cc1)NC(=O)C1(Nc2cccc(-c3ccccc3)c2)CCCCC1
> 4170

Look up Selectivity ratio: CC(C)C[C@H](NC(=O)c1ccc(C(C)(C)C)cc1)C(=O)N1CC[C@@H]2[C@H]1C(=O)CN2C(=O)c1ccccc1
> 347

Look up Selectivity ratio: CC(C)(C)Cn1c(CN2C(=O)CC3(CCNCC3)C2=O)cc2cnc(C#N)nc21
> 1000

Cited source: ChEMBL document CHEMBL1155461
